Assignment: determine reported IC50 for the given molecules.
# measured_target: wild-type human melanocortin 4 receptor (WT-hMC4R) (Homo sapiens)
# Construct: cDNA from UMR cDNA resource center
# Sequence (P32245 whole entry): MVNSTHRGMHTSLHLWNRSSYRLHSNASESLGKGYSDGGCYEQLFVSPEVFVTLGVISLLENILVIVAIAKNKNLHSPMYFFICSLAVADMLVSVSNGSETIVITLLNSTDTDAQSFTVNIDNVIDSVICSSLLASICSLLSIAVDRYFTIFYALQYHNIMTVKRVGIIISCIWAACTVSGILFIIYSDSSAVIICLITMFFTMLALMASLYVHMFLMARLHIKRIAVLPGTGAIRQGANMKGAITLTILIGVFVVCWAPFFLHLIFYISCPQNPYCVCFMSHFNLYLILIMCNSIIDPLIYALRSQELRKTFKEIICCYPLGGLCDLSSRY
# measurement_notes: Cyclic AMP assay (HTRF), antagonist competition against NDP-α-MSH
# condition_set: HEK293T cells expressing double-tagged WT-hMC4R; cAMP accumulation; 1 hour compound then 4 nM NDP-α-MSH 30 min

Any idea what IC50 was measured for CC(C)CCN(CCC(C)C)C(=O)c1ccn2nc(C(C)(C)C)c(/C=C/CN3CCCCC3)c2c1 [Example 128] ? 1000 to 5000 nM

Form field: reported IC50 of COc1ccc(-c2nn3ccc(C(=O)N(CCC(C)C)CCC(C)C)cc3c2/C=C/CN2CCOCC2)cc1 [Example 123] 1000 to 5000 nM

Tell me the measured IC50 of CC(C)CCN(CCC(C)C)C(=O)c1ccn2nc(-c3cccc(Cl)c3)c(/C=C/CN3CCCCC3)c2c1 [Example 72] , please. 500 to 1000 nM

So what's the measured IC50 for this one? COc1cccc(-c2nn3ccc(C(=O)N(CCC(C)C)CCC(C)C)cc3c2/C=C/CN2CCCCC2)c1 [Example 13] 500 to 1000 nM

Sample COC(=O)c1ccccc1-c1nn2ccc(C(=O)N(CCC(C)C)CCC(C)C)cc2c1CCCN1CCCCC1 [Example 39] — what was its IC50? 1000 to 5000 nM

Consider the molecule CCOc1ccc(-c2nn3ccc(C(=O)N(CCC(C)C)CCC(C)C)cc3c2CCCN2CCC(C(F)(F)F)CC2)cc1 [Example 82] and give its measured IC50. 5000 to 15000 nM

Any idea what IC50 was measured for COc1ccc(Nc2nn3ccc(C(=O)N(CCC(C)C)CCC(C)C)cc3c2CCCN2CCCCC2)cc1 [Example 142] ? < 500 nM

Recorded IC50 of COc1cc(-c2nn3ccc(C(=O)N(CCC(C)C)CCC(C)C)cc3c2CCCN2CCCCC2)cc(OC)c1OC [Example 67] , please. < 500 nM

Which IC50 reading was recorded for the molecule COC(=O)c1cccc(-c2nn3ccc(C(=O)N(CCC(C)C)CCC(C)C)cc3c2/C=C/CN2CCCCC2)c1 [Example 30] ? < 500 nM

Fill in the blank: the reported IC50 of COc1ccc(-c2nn3ccc(C(=O)N(CCC(C)C)CCC(C)C)cc3c2CCCNCc2ccccc2)cc1 [Example 155] is ____. 1000 to 5000 nM

Would you kindly share the measured IC50 for CC(C)CCN(CCC(C)C)C(=O)c1ccn2nc(-c3cccc(C(N)=O)c3)c(CCCN3CCCCC3)c2c1 [Example 90] ? < 500 nM

Item CC(C)CCN(CCC(C)C)C(=S)c1ccn2nc(-c3ccccc3)c(CCCN3CCCCC3)c2c1 [Example 143] has what recorded IC50? 1000 to 5000 nM

Any idea what IC50 was measured for CCN(CC)C/C=C/c1c(-c2ccc(OC)cc2)nn2ccc(C(=O)N(CCC(C)C)CCC(C)C)nc12 [Example 100] ? 5000 to 15000 nM

Given CC(=O)O/N=C(\N)c1ccc(-c2nn3ccc(C(=O)N(CCC(C)C)CCC(C)C)cc3c2CCCN2CCCCC2)cc1 [Example 107] , state its recorded IC50. < 500 nM

Given the molecule CC(C)CCN(CCC(C)C)C(=O)c1ccn2nc(-c3ccccc3)c(/C=C/CN3CCCCC3)c2c1 [Example 58] , what is its reported IC50? 500 to 1000 nM

Dear colleague, I am looking for the recorded IC50 of the following molecule: CCCCCN(CCCCC)C(=O)c1ccn2nc(-c3cc(OC)c(OC)c(OC)c3)c(CCCN3CCCCC3)c2c1 [Example 68] 500 to 1000 nM

What value of IC50 has been recorded for this entry: COc1ccc(-c2nn3ccc(C(=O)N(CCC(C)C)CCC(C)C)cc3c2/C=C/CNCc2ccccc2)cc1 [Example 150] 5000 to 15000 nM

Requested read-out: IC50. Entry: COc1ccc(-c2nn3ccc(C(=O)N(CCC(C)C)CCC(C)C)cc3c2CCCN(C)C2CCNCC2)cc1 [Example 129] 500 to 1000 nM

Can you share its IC50? I mean this molecule: COc1ccc(-c2nn3ccc(C(=O)N(CCC4CC4)CCC4CC4)cc3c2/C=C/CN2CCCCC2)cc1 [Example 108] 1000 to 5000 nM

Give the measured IC50 of CCCCN(C/C=C/c1c(-c2ccc(OC)cc2)nn2ccc(C(=O)N(CCCC)CCCC)cc12)CCCC [Example 110] . 5000 to 15000 nM

Reported IC50, molecule CCCCN(CCC)C(=O)c1ccn2nc(-c3ccc(OC)cc3)c(/C=C/CN3CCCCC3)c2c1 [Example 25] : ____ 1000 to 5000 nM

Could you share which IC50 value was measured for CC(=O)c1ccc(-c2nn3ccc(C(=O)N(CCC(C)C)CCC(C)C)cc3c2/C=C/CN2CCCCC2)cc1 [Example 42] ? 500 to 1000 nM

May I ask what IC50 has been recorded for COc1ccc(-c2nn3ccc(C(=O)N(CCC(C)C)CCC(C)C)cc3c2/C=C/CN2CCCOCC2)cc1 [Example 159] ? 500 to 1000 nM

Could you tell me which IC50 is on file for COc1ccc(-c2nn3ccc(C(=O)N(CCC(C)C)CCC(C)C)cc3c2CCCN2CCCCCC2)cc1 [Example 111] ? 1000 to 5000 nM

Param item = CC(C)CCN(CCC(C)C)C(=O)c1ccn2nc(-c3ccc(-c4nnn[nH]4)cc3)c(CCCN3CCCCC3)c2c1 [Example 98] ; retrieve measured IC50. 1000 to 5000 nM

Item CNC/C=C/c1c(-c2ccc(OC)cc2)nn2ccc(C(=O)N(CCC(C)C)CCC(C)C)cc12 [Example 153] has what recorded IC50? 5000 to 15000 nM

Which value of IC50 has been reported for CCCN(CC1CC1)C(=O)c1ccn2nc(-c3ccc(OC)cc3)c(CCCN3CCCCC3)c2c1 [Example 27] in the records? 5000 to 15000 nM

Name the reported IC50 value associated with the molecule COc1ccc(-c2nn3ccc(C(=O)N(CCC(C)C)CCC(C)C)cc3c2CCCN2CCC2)cc1 [Example 156] 1000 to 5000 nM

Request the reported IC50 associated with CCCCN(CCCC)C(=O)c1ccn2nc(-c3ccccc3)c(/C=C/CN3CCCCC3)c2c1 [Example 57] 1000 to 5000 nM

Please give the measured IC50 for this molecule: CCCCCN(CCCCC)C(=O)c1ccn2nc(-c3cc(OC)c(OC)c(OC)c3)c(/C=C/CN3CCCCC3)c2c1 [Example 71] 1000 to 5000 nM
